Experiment: In vivo metabolism (pharmacokinetic) experiment in mice
Design: species or system male ICR mice
Settings: mouse, male ICR mice, oral 10 mg/kg, plasma, read-out: Cmax (po)
Item-by-item account of Cmax

Reference set (2 entries):
                              compound     result
0   NC1(c2ccccc2)CCc2ccsc2C1 (racemic)  284 ng/mL
1  CNC1(c2ccccc2)CCc2ncsc2C1 (racemic)  518 ng/mL

Please examine the following record next.
Lab book: Cmax of CNC1(c2ccccc2)CCc2[nH]ncc2C1 (racemic) noted as 456 ng/mL

###

Molecular target: human DAT (Homo sapiens, UniProt Q01959)
Sequence (Q01959 whole entry): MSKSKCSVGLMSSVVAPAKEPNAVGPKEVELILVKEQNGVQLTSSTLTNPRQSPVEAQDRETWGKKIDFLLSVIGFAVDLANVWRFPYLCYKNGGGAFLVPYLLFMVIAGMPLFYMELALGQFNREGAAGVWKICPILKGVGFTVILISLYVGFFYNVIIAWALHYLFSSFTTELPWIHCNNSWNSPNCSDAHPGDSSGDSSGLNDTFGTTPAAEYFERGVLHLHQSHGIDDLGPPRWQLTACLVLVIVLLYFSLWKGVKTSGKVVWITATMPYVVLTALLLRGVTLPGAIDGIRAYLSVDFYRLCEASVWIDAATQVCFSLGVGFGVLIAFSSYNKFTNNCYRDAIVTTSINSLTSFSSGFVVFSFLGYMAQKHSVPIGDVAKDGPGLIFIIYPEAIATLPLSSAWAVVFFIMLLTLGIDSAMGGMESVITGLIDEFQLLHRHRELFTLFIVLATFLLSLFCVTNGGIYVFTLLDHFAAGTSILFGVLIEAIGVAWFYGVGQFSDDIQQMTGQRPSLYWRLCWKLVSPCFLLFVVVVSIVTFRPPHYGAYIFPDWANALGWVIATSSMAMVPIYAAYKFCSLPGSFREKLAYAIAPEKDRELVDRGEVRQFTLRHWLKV
Assay: DAT transporter inhibitory activity test (neurotransmitter transporter uptake assay kit)
Type: cell-based
Settings: DAT stably transfected HEK cells; read-out: DAT (IC50)
Item-by-item account of pIC50
// scale note: pIC50 = -log10(conc_M); give the bare number

Reference set (5 entries):
>>> print(df.to_string())
                                   compound  result_number
0   Nc1nc2c(s1)C[C@](N)(c1ccccc1)CC2 [S-A1]           5.19
1  Nc1nc2c(s1)CC(N)(c1cccc(F)c1)CC2 (racemic) [rac-A10]           5.18
2  NC1(c2ccc3ccccc3c2)CCc2sccc2C1 (racemic) [rac-A247]           5.82
3  c1ccc(C2(N3CCCC3)CCc3oncc3C2)cc1 (racemic) [rac-A55]           5.35
4  CN(C)C1(c2ccccc2)CCc2nc(N)sc2C1 (racemic) [rac-A114]           6.00

Tested on human DAT (Homo sapiens, UniProt Q01959), the item Nc1nc2c(s1)CC(c1cccc(Cl)c1)(N1CCCC1)CC2 (racemic) [rac-A51] showed pIC50 equal to 6.70

Tested on human DAT (Homo sapiens, UniProt Q01959), the item c1ccc([C@@]2(N3CCCC3)CCc3[nH]ncc3C2)cc1 [R-A12] showed pIC50 equal to 5.70

Tested on human DAT (Homo sapiens, UniProt Q01959), the item CCOc1cccc(C2(NC)CCc3nc(N)sc3C2)c1 (racemic) [rac-A342] showed pIC50 equal to 6.46
